The reported measurements were obtained from paper PMC9352680.

Biological target: T1, PUF4 RNA-binding domain (Saccharomyces cerevisiae, UniProt P25339 537-888)
T1 sequence: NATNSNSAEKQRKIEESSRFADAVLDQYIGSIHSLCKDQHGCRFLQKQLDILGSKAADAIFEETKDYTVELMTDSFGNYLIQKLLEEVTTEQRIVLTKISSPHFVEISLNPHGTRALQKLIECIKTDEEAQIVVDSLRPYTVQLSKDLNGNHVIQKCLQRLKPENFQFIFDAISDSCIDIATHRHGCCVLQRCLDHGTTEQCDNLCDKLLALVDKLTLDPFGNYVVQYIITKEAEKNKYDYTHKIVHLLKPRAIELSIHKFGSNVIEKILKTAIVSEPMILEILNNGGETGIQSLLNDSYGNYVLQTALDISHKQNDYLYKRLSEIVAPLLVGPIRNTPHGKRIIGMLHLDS
Experiment: Mg; RNA-MaP; 20 mM Na-HEPES pH 7.4, 30 mM KOAc, 0.75 mM MgCl2, 0.1% Tween-20, 5% glycerol, 0.1 mg/mL BSA, 2 mM DTT; 25 C; 0.0125-409.6 nM protein
Conditions: tags: N-His6-TEV cleaved; C-SNAP kept, Cy3B-labelled; label: tethered on chip by stalled RNA polymerase
pKd: −log10 of the molar value.
Entries and their measured pKd follow.
MEASURED_ATTRIBUTE: pKd

Ia_S2_P4E.1_K4.1_C4.1_H4.1_[A4C]_A4.1_F4.1_T4.1 (ssRNA) RNA: UUUGAUUAAUAUGAUAUCGUUCUUUCUUGUCUAUUAUUCUUUCUCGAUAUCAUAUUAAUCUUU | 8.39
Ib_S4_P4E.1_K4.1_C4.1_H4.1_[T1G]_A4.1_[T7A]_F4.1_T4.1 (ssRNA) RNA: UUUGACAACUGAUCGUUCUUUCUGGUAUAAUAUUCUUUCUCGAUCAGUUGUCUUU | 6.48
UCUCUUUUACACUAUAUGUCUCUU (ssRNA) [Id_ii_S1_P3E.4_K3.3_C3.2_[C-2T]_H3.3_A3.1_F3.1_T3.2_[A10G]] | 5.65
Ib_S2_P3E.1_K3.1_C3.1_H3.1_[T3C]_[A4G]_A3.1_F3.1_T3.1 (ssRNA) RNA: UUUGAUUAAUAUGAUAUCGUUCUUUCUUGCGUAUAUUCUUUCUCGAUAUCAUAUUAAUCUUU | 5.96
UCUCUUUGUUUUAGUAUCUCUU (ssRNA) [Ib_S1_P5E.1_K5.1_C5.1_H5.1_[A4T]_A5.1_F5.1_[T8G]_T5.1] | 7.15
Ic_S2_P3E.1_K3.1_C3.1_H3.1_A3.1_[T5C]_F3.1_T3.1 (ssRNA) RNA: UUUGAUUAAUAUGAUAUCGUUCUUUCUUGUACAUAUUCUUUCUCGAUAUCAUAUUAAUCUUU | 8.75
